Molecular target: recombinant human IL17a (binding to its receptor IL17R) (Homo sapiens)
Construct: 177-IR (IL17R/Fc)
Sequence (Q16552 20-155 limits assumed): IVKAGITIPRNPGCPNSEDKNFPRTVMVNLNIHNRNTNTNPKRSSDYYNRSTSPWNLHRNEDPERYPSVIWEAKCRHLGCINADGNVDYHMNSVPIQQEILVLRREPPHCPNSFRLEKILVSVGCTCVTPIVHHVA
Experiment: IL-17 competition ELISA I (IL17a coated, IL17R/Fc binding)
pIC50: −log10 of the molar value.
PROPERTY NAME: pIC50

**Q:** Give the reported value of pIC50 for this record: `O=C1CNC(=O)[C@@H](Cc2ccc(NC(=O)[C@@H](NC(=O)c3ccccc3)C3CCCCC3)cc2)NC(=O)CC2(CCCC2)CC(=O)NCCCCCN1`
**A:** 5.00 to 6.00

**Q:** # return recorded pIC50 for entry `O=C1CNC(=O)[C@@H](Cc2ccc(NC(=O)[C@H](Cc3ccccc3Cl)NC(=O)c3ccc(F)c(F)c3)cc2)NC(=O)CC2(CCCC2)CC(=O)NCCCCCN1`
**A:** > 7.00

**Q:** Kindly indicate its recorded pIC50. Item: `C=CCOC(=O)N1CCNC(=O)CNC(=O)[C@@H](Cc2ccc(NC(=O)[C@H](Cc3ccccc3Cl)NC(=O)Cc3ccccc3)cc2)NC(=O)CC2(CCCC2)CC(=O)NCC1`
**A:** 6.00 to 7.00

**Q:** Item `O=C1CC2(CCCC2)CC(=O)N[C@H](Cc2ccc(NC(=O)[C@H](Cc3ccccc3Cl)NC(=O)Cc3ccccc3)cc2)C(=O)NCCOCCOCCN1` : provide pIC50
**A:** 6.00 to 7.00

**Q:** Quote pIC50 reported for `O=C1CNC(=O)[C@@H](Cc2ccc(NC(=O)[C@H](Cc3ccccc3Cl)NC(=O)c3cccnc3)cc2)NC(=O)CC2(CCCC2)CC(=O)NCCCCCN1` please.
**A:** > 7.00

**Q:** Tell us which pIC50 value is on record for `O=C1CC2(CCCC2)CC(=O)N[C@H](Cc2ccc(NC(=O)[C@@H](NC(=O)Cc3ccccc3)C3CCCCC3)cc2)C(=O)NCCOCCOCCN1`
**A:** 6.00 to 7.00

**Q:** Read off the recorded pIC50 for `C[C@@H]1NC(=O)[C@@H](Cc2ccc(NC(=O)[C@H](Cc3ccccc3Cl)NC(=O)Cc3ccccc3)cc2)NC(=O)CC2(CCCC2)CC(=O)NCCCCCNC1=O`
**A:** 6.00 to 7.00

**Q:** Please list pIC50 recorded for the molecule `C[C@H]1NC(=O)[C@@H](Cc2ccc(NC(=O)[C@@H](NC(=O)Cc3ccccc3)C3CCCCC3)cc2)NC(=O)CC2(CCCC2)CC(=O)N[C@H](C(=O)O)CCCCNC1=O`
**A:** > 7.00

**Q:** Output measured pIC50 for this item: `O=C1CNC(=O)[C@@H](Cc2ccc(NC(=O)[C@H](Cc3ccccc3Br)NC(=O)Cc3ccccc3)cc2)NC(=O)CC2(CCCC2)CC(=O)NCCCCCN1`
**A:** > 7.00

**Q:** Please report pIC50 for the following molecule: `O=C1CC2(CCCC2)CC(=O)N[C@H](Cc2ccc(NC(=O)[C@@H](NC(=O)Cc3ccccc3)C3CCCCC3)cc2)C(=O)NCCCCCCCCN1`
**A:** 5.00 to 6.00

**Q:** Consider the molecule `CCCC[C@H](NC(=O)Cc1ccccc1)C(=O)Nc1ccc(C[C@H]2NC(=O)CC3(CCCC3)CC(=O)NCCCCCNC(=O)CNC2=O)cc1` . State its measured pIC50.
**A:** 6.00 to 7.00
